// values below are reported MNTC
# Assay Summary: Toxicity in human HUVEC assessed as maximum tolerable dose by trypan blue exclusion assay
# Assay type: cell-based
# Cond: HUVEC cells, read-out: MTD

| Smiles String | MNTC, µg/mL |
| --- | --- |
| O[C@H](CCl)CNc1ccc(Br)cc1 | 40 |
| O[C@H](CCl)CNc1cccc(Cl)c1 | 30 |
| COc1ccc(OC)c(NC[C@H](O)CCl)c1 | 30 |
| Cc1ccc(NC[C@H](O)CCl)cc1 | 40 |
| O[C@H](CCl)CNc1ccccc1 | 30 |
| O[C@H](CCl)CNc1ccc(Cl)cc1 | 30 |
| O[C@H](CCl)CNc1ccccc1Cl | 40 |
